- MEASURED_ON: Protein cereblon/Inactive tyrosine-protein kinase transmembrane receptor ROR1 (Homo sapiens) (UniProt Q96SW2+Q01973)
- Sequence (Q01973 whole entry, looked up): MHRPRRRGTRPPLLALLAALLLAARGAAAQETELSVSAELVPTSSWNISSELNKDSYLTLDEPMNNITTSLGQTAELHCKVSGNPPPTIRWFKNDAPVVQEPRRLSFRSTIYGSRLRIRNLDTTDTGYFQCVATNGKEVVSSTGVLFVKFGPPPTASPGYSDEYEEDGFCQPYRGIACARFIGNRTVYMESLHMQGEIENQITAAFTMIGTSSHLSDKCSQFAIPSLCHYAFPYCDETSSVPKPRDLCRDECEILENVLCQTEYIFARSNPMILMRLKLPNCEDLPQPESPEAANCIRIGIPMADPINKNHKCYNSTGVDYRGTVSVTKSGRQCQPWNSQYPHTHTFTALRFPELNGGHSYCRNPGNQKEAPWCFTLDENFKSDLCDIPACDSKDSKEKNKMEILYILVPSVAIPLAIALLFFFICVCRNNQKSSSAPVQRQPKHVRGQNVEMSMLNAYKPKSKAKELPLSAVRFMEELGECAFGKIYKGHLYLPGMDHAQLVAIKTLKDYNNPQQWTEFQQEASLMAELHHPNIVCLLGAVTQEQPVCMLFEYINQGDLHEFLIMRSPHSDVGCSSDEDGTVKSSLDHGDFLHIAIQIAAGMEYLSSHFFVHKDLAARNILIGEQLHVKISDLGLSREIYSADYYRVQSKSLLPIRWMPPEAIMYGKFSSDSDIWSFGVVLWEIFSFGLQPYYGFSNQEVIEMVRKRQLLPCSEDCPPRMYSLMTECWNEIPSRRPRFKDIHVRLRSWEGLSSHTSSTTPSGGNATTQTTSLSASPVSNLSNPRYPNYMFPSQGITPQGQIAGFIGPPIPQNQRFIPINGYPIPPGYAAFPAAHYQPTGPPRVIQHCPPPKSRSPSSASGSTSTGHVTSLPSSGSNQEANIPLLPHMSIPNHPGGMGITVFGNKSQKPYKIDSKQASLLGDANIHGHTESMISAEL
- Sequence (Q96SW2 whole entry, looked up): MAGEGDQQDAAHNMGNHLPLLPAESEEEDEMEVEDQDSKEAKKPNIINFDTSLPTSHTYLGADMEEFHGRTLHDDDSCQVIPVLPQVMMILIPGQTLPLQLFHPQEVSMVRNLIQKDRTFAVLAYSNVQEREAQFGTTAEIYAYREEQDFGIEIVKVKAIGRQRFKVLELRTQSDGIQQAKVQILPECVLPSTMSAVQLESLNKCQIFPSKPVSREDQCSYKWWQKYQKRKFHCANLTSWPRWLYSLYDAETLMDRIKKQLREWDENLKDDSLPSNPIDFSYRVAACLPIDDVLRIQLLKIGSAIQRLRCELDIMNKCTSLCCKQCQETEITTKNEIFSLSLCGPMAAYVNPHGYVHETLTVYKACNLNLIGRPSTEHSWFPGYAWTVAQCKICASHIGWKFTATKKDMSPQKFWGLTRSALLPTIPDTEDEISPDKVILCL
- ASSAY_NOTES: PROTAC activity at CRBN/ROR1 in human NCI-H23 cells assessed as induction of ROR1 degradation at 1 uM incubated for 24 hrs by Western blot analysis relative to control
- Assay type: cell-based
MEASURE: Activity (%)
Provide the reading as a plain figure in %.

Let me know recorded Activity for CCN1CCC(Nc2c(Br)cnc3[nH]c(-c4ccc(N5CCN(C(=O)CCCNc6ccc7c(c6)C(=O)N(C6CCC(=O)NC6=O)C7=O)CC5)cc4)nc23)CC1 (stereo unspecified) , thanks.
46.8

Let me know recorded Activity for CCN1CCC(Nc2c(Br)cnc3[nH]c(-c4ccc(N5CCN(C(=O)COc6cccc7c6C(=O)N(C6CCC(=O)NC6=O)C7=O)CC5)cc4)nc23)CC1 (stereo unspecified) , thanks.
88.9

Let me know recorded Activity for CCN1CCC(Nc2c(Br)cnc3[nH]c(-c4ccc(N5CCN(C(=O)CCCCCNc6cccc7c6C(=O)N(C6CCC(=O)NC6=O)C7=O)CC5)cc4)nc23)CC1 (stereo unspecified) , thanks.
75.8

Let me know recorded Activity for CCN1CCC(Nc2c(Br)cnc3[nH]c(-c4ccc(N5CCN(C(=O)CCCCCOc6ccc7c(c6)C(=O)N(C6CCC(=O)NC6=O)C7=O)CC5)cc4)nc23)CC1 (stereo unspecified) , thanks.
0

Let me know recorded Activity for CCN1CCC(Nc2c(Br)cnc3[nH]c(-c4ccc(N5CCN(C(=O)CCCCCCCCCNc6cccc7c6C(=O)N(C6CCC(=O)NC6=O)C7=O)CC5)cc4)nc23)CC1 (stereo unspecified) , thanks.
57.5

Let me know recorded Activity for CCN1CCC(Nc2c(Br)cnc3[nH]c(-c4ccc(N5CCN(CCCCCCNc6ccc7c(c6)C(=O)N(C6CCC(=O)NC6=O)C7=O)CC5)cc4)nc23)CC1 (stereo unspecified) , thanks.
89.9

###

Assignment: determine reported Activity for the given compounds.
- MEASURED_ON: Protein cereblon/Inactive tyrosine-protein kinase transmembrane receptor ROR1 (Homo sapiens) (UniProt Q96SW2+Q01973)
- ASSAY_NOTES: PROTAC activity at CRBN/ROR1 in human NCI-H23 cells assessed as induction of ROR1 degradation at 0.1 uM incubated for 24 hrs by Western blot analysis relative to control
- Format: cell-based
Provide the reading as a plain figure in %.

Let me know recorded Activity for CCN1CCC(Nc2c(Br)cnc3[nH]c(-c4ccc(N5CCN(C(=O)CCCCCNc6ccc7c(c6)C(=O)N(C6CCC(=O)NC6=O)C7=O)CC5)cc4)nc23)CC1 (stereo not given) , thanks.
35.5

Let me know recorded Activity for CCN1CCC(Nc2c(Br)cnc3[nH]c(-c4ccc(N5CCN(CCOCCOCCOCCNc6ccc7c(c6)C(=O)N(C6CCC(=O)NC6=O)C7=O)CC5)cc4)nc23)CC1 (stereo not given) , thanks.
0

Let me know recorded Activity for CCN1CCC(Nc2c(Br)cnc3[nH]c(-c4ccc(N5CCN(C(=O)CNc6cccc7c6C(=O)N(C6CCC(=O)NC6=O)C7=O)CC5)cc4)nc23)CC1 (stereo not given) , thanks.
0

Let me know recorded Activity for CCN1CCC(Nc2c(Br)cnc3[nH]c(-c4ccc(N5CCN(CCCCCCNc6cccc7c6C(=O)N(C6CCC(=O)NC6=O)C7=O)CC5)cc4)nc23)CC1 (stereo not given) , thanks.
6.1

Let me know recorded Activity for CCN1CCC(Nc2c(Br)cnc3[nH]c(-c4ccc(N5CCN(C(=O)CCCCCCCNc6cccc7c6C(=O)N(C6CCC(=O)NC6=O)C7=O)CC5)cc4)nc23)CC1 (stereo not given) , thanks.
1.2
